The values you see were collected from patent US20250154169A1.

# Tested on: MYB mRNA
# EXPERIMENT: Splicing RT-qPCR assay, MYB canonical (CJ) and alternative (AJ) junction mRNA
# Format: cell-based, human
# EXPERIMENTAL SETUP: Homo sapiens, 24 h, A673 or K562 cells, 24 hours compound treatment, RT-qPCR; read-out: MYB AJ (AC50, increase in alternative junction mRNA)
OBSERVABLE: AC50

The value of AC50 recorded for CCn1cc2c(N3CCC(C)(NC)CC3)ccc(C(=O)Nc3cc(F)c4nc(C)cn4c3)c2n1 [Compound 423] when tested on MYB mRNA reads < 0.1 µM

The value of AC50 recorded for Cc1cn2nc(NC(=O)c3ccc(N4CCNCC4)c4cc(C)oc34)cc(C)c2n1 [Compound 148] when tested on MYB mRNA reads 1 to 10 µM

The value of AC50 recorded for Cc1cn2cc(NC(=O)c3ccc(N4CCCC4)c4cn(C)nc34)cc(F)c2n1 [Compound 487] when tested on MYB mRNA reads 1 to 10 µM

The value of AC50 recorded for CNC1CCN(c2ccc(C(=O)Nc3cn4cc(C)nc4c(OC)n3)c3nn(C)cc23)C1 (centres unmarked) [Compound 417] when tested on MYB mRNA reads < 0.1 µM

The value of AC50 recorded for Cc1cn2cc(NC(=O)c3ccc(N4CCC(N)(CF)CC4)c4cn(C)nc34)cc(F)c2n1 [Compound 397] when tested on MYB mRNA reads 0.1 to 1 µM

The value of AC50 recorded for Cc1cn2cc(NC(=O)c3ccc(N4CC[C@@H](NCC5(O)CC5)C4)c4cn(C)nc34)cc(F)c2n1 [Compound 639] when tested on MYB mRNA reads 0.1 to 1 µM

The value of AC50 recorded for Cc1cn2cc(NC(=O)c3ccc(N4CCNCC4)c4cn(CC5CCO5)nc34)cc(F)c2n1 (centres unmarked) [Compound 338] when tested on MYB mRNA reads 0.1 to 1 µM

The value of AC50 recorded for CN[C@@H]1CCN(c2ccc(C(=O)Nc3nc(OC)c4nn(C)cc4n3)c3nn(C)cc23)C1 [Compound 624] when tested on MYB mRNA reads 1 to 10 µM

* * *

# Tested on: MYB mRNA
# EXPERIMENT: Splicing RT-qPCR assay, MYB canonical (CJ) and alternative (AJ) junction mRNA
# Format: cell-based, human
# EXPERIMENTAL SETUP: Homo sapiens, 24 h, A673 or K562 cells, 24 hours compound treatment, RT-qPCR; read-out: MYB AJ (AC50, increase in alternative junction mRNA)
# Description: Compounds described herein were used to modulate RNA transcript abundance in cells. The expression of a target mRNA was measured by detecting the formation of an exon-exon junction in the canonical transcript (CJ). A compound mediated exon-inclusion event was detected by observing an increase in formation of a new junction with an alternative exon (AJ). Real-time qPCR assays were used to detect these splicing switches and interrogate the potency of various compounds towards different target genes. […]
Structures can show the parent of a compound that is named as a salt.
OBSERVABLE: AC50

Per the records, this molecule ( C=C(C)n1ncc2c(N3CCNCC3)ccc(C(=O)Nc3cc(F)c4nc(C)cn4c3)c21 [Compound 416] ) has AC50 equal to > 10000 nM

Per the records, this molecule ( Cc1cn2cc(NC(=O)c3ccc(N4CCC(C)(NC(C)C)C4)c4cn(C)nc34)cc(F)c2n1 (stereo not drawn) [Compound 574] ) has AC50 equal to 100 to 1000 nM

Per the records, this molecule ( CCn1cc2c(N3CC[C@H](N(C)C)C3)ccc(C(=O)Nc3cc(F)c4nc(C)cn4c3)c2n1 [Compound 408] ) has AC50 equal to 100 to 1000 nM

Per the records, this molecule ( CCn1cc2c(N3CC4(CCNC4)C3)ccc(C(=O)Nc3cc(F)c4nc(C)cn4c3)c2n1 [Compound 491] ) has AC50 equal to 1000 to 10000 nM

Per the records, this molecule ( Cc1cn2cc(NC(=O)c3ccc(N4CCC(CN)CC4)c4cn(C)nc34)cc(F)c2n1 [Compound 335] ) has AC50 equal to 1000 to 10000 nM

Per the records, this molecule ( CCn1cc2c(N3CCC(NC)C3)ccc(C(=O)Nc3cc(F)c4nc(C)cn4c3)c2n1 (stereo not drawn) [Compound 374] ) has AC50 equal to < 100 nM

Per the records, this molecule ( Cc1cn2cc(NC(=O)c3ccc(N4CCC5(CCN5)CC4)c4cn(C)nc34)cc(F)c2n1 [Compound 301, trifluoroacetic acid salt] ) has AC50 equal to < 100 nM

Per the records, this molecule ( CCn1cc2c(N3CCC(NC4CC4)CC3)cc(Cl)c(C(=O)Nc3cc(F)c4nc(C)cn4c3)c2n1 [Compound 627] ) has AC50 equal to 100 to 1000 nM

Per the records, this molecule ( CCn1cc2c(C3OCC(C)(N)CO3)ccc(C(=O)Nc3cc(F)c4nc(C)cn4c3)c2n1 (stereo not drawn) [Compound 454] ) has AC50 equal to 1000 to 10000 nM

Per the records, this molecule ( Cc1cn2cc(NC(=O)c3ccc(N4CC5(CNC5)C4)c4cc(C)oc34)cc(F)c2n1 [Compound 205] ) has AC50 equal to 100 to 1000 nM

Per the records, this molecule ( Cn1cc2c(N3CCNCC3)ccc(C(=O)Nc3cc(F)c4nc(CO)oc4c3)c2n1 [Compound 406] ) has AC50 equal to < 100 nM

Per the records, this molecule ( Cc1cn2cc(NC(=O)c3c(F)cc(N4CC[C@@H](NC5(C#N)CC5)C4)c4cn(C)nc34)cc(F)c2n1 [Compound 587] ) has AC50 equal to 100 to 1000 nM

Per the records, this molecule ( Cc1cn2cc(NC(=O)c3ccc(N4CC[C@H](N(C)C)C4)c4cn(C)nc34)cc(F)c2n1 (single isomer, unassigned) [Compound 351] ) has AC50 equal to < 100 nM

Per the records, this molecule ( Cc1cn2cc(NC(=O)c3ccc(N4CC[C@@H](N)C4)c4cn(C)nc34)cc(F)c2n1 [Compound 381] ) has AC50 equal to < 100 nM

Per the records, this molecule ( Cc1cn2nc(NC(=O)c3ccc(N4CCNCC4)c4cn(C)nc34)nc2c(C)n1 [Compound 253] ) has AC50 equal to > 10000 nM

Per the records, this molecule ( Cc1cn2cc(NC(=O)c3ccc(N4CCC(NCc5ccccn5)CC4)c4cn(C)nc34)cc(F)c2n1 [Compound 347] ) has AC50 equal to < 100 nM

Per the records, this molecule ( CCn1cc2c(N3CCC(NC4C5CNCC54)CC3)ccc(C(=O)Nc3cc(F)c4nc(C)cn4c3)c2n1 (stereo not drawn) [Compound 580, bis(trifluoroacetic acid)] ) has AC50 equal to 1000 to 10000 nM

Per the records, this molecule ( Cc1nc2c(F)cc(NC(=O)c3ccc(N4CCNCC4)c4cn(C)nc34)cn2c1C [Compound 458] ) has AC50 equal to < 100 nM

Per the records, this molecule ( CCn1cc2c(N3CC[C@H](N(C)C)C3)cc(F)c(C(=O)Nc3cc(F)c4nc(C)cn4c3)c2n1 [Compound 472] ) has AC50 equal to < 100 nM

Per the records, this molecule ( CCOc1nc(NC(=O)c2ccc(N3CCC(NC)C3)c3cn(C)nc23)cn2cc(C)nc12 (stereo not drawn) [Compound 420] ) has AC50 equal to 100 to 1000 nM

Per the records, this molecule ( CCNC1CCN(c2ccc(C(=O)Nc3cc(F)c4nc(C)cn4c3)c3nn(CCOC)cc23)CC1 [Compound 307] ) has AC50 equal to 100 to 1000 nM

Per the records, this molecule ( Cc1cn2cc(NC(=O)c3ccc(N4CCN[C@@H](C(C)C)C4)c4cn(C)nc34)cc(F)c2n1 [Compound 589] ) has AC50 equal to 1000 to 10000 nM

Per the records, this molecule ( Cc1cn2cc(NC(=O)c3ccc(N4CCNCC4)c4c[nH]nc34)cc(F)c2n1 [Compound 490] ) has AC50 equal to 1000 to 10000 nM

Per the records, this molecule ( Cc1cn2cc(NC(=O)c3ccc(N4CCC(CN)C4)c4cn(C)nc34)cc(F)c2n1 (stereo not drawn) [Compound 327] ) has AC50 equal to 100 to 1000 nM

Per the records, this molecule ( Cc1cn2cc(NC(=O)c3ccc(N4CC[C@@H](NCc5ncccn5)C4)c4cn(C)nc34)cc(F)c2n1 [Compound 594] ) has AC50 equal to 1000 to 10000 nM

Per the records, this molecule ( COC1CC(n2cc3c(N4CCNCC4)ccc(C(=O)Nc4cc(F)c5nc(C)cn5c4)c3n2)C1 (stereo not drawn) [Compound 424] ) has AC50 equal to > 10000 nM

Per the records, this molecule ( Cc1cn2cc(NC(=O)c3ccc(N4CCC(NCCO)CC4)c4cn(C)nc34)cc(F)c2n1 [Compound 369] ) has AC50 equal to < 100 nM

Per the records, this molecule ( CCn1cc2c(N3CCC(CC)(NC)CC3)ccc(C(=O)Nc3cc(F)c4nc(C)cn4c3)c2n1 [Compound 515] ) has AC50 equal to < 100 nM

Per the records, this molecule ( CCNC1CCN(c2ccc(C(=O)Nc3cn4cc(C)nc4c(F)c3OC)c3nn(C)cc23)CC1 [Compound 459] ) has AC50 equal to < 100 nM

Per the records, this molecule ( COCc1nc2c(F)cc(NC(=O)c3ccc(N4CCNCC4)c4cn(C)nc34)cc2o1 [Compound 504] ) has AC50 equal to 1000 to 10000 nM
